Each recorded value in this set is attributed to PubChem BioAssay.

run.description: drug combination growth inhibition, ovarian cancer – cell-based, oncology-focused library, rucaparib conditional, profiling panel (AID 1508598)
study.conditions: patient-derived ovarian cancer cells, CellTiter-Glo viability, 144 h; at 0.000305 µM; OCI-P5x cells; without rucaparib; active compounds read low
We begin with a simple list: items and their reported viability.
measured.quantity: viability (%)

> print(dat)
                                      smiles  display.unit  quantitative.result
 1  COC(=O)Nc1ccc(-c2nc(N3CCOCC3)c3cnn(C4CCN(C(=O)OC)CC4)c3n2)cc1             %                 90.5
 2  CN1CCN(c2ccc(OC(F)(F)F)c(Nc3ncc4c(n3)-c3c(c(C(N)=O)nn3CCO)CC4)c2)CC1             %                 84.5
 3  COc1ccc(S(=O)(=O)Nc2cccnc2Nc2ccc(O)cc2)cc1             %                  128
 4  C#CC[C@H](c1nc2cc(Cl)ccc2c(=O)n1Nc1ccccc1)N(CCCN)C(=O)c1cccc(Cl)c1F             %                 94.3
 5  O=C(Nc1cccc(Cl)c1)Nc1ncc(CCNc2ncnc3ccsc23)s1             %                  122
 6  COc1ccc(-c2ccc3c(N4CCOCC4)nc(N4C[C@@H](C)O[C@@H](C)C4)nc3n2)cc1CO             %                  112
 7  Cc1cnc(-c2ccccc2C(C)C)nc1NCc1ccc(-n2ccnn2)cc1             %                  100
 8  CC(C)n1nc(-c2ccc3oc(N)nc3c2)c2c(N)ncnc21             %                 92.8
 9  CNC(=O)c1cc(COc2nnc(Nc3ccc(Cl)cc3)c3ccoc23)ccn1             %                  114
10  C=CC(=O)N1CCC[C@@H](n2nc(-c3ccc(Oc4ccccc4)cc3)c3c(N)ncnc32)C1             %                 94.3

###

run.description: drug combination growth inhibition, ovarian cancer – cell-based, oncology-focused library, rucaparib conditional, profiling panel (AID 1508598)
study.conditions: patient-derived ovarian cancer cells, CellTiter-Glo viability, 144 h; at 0.00488 µM; OCI-C5x cells; with rucaparib 10 µM; active compounds read low; 100% = cells with rucaparib alone
We begin with a simple list: items and their reported viability.
measured.quantity: viability (%)

> print(dat)
                                     smiles  quantitative.result
1  Nc1cc(C(F)(F)F)c(-c2cc(N3CCOCC3)nc(N3CCOCC3)n2)cn1                  112
2  Cn1cncc1[C@@](N)(c1ccc(Cl)cc1)c1ccc2c(c1)c(-c1cccc(Cl)c1)cc(=O)n2C                  115
3  CN(C)C/C=C/C(=O)Nc1cc2c(Nc3ccc(F)c(Cl)c3)ncnc2cc1O[C@H]1CCOC1                  107
4  CC1(C)CNc2cc(NC(=O)c3cccnc3NCc3ccncc3)ccc21                  112
5  CC(C)c1cc(-c2n[nH]c(=O)n2-c2ccc3c(ccn3C)c2)c(O)cc1O                 96.9
6  O=C(NOC[C@H](O)CO)c1ccc(F)c(F)c1Nc1ccc(I)cc1F                  111
7  Cc1cccc(-c2[nH]c(C(C)(C)C)nc2-c2ccc3nccnc3c2)n1                  120
8  NC1(c2ccc(-c3nc4ccn5c(=O)[nH]nc5c4cc3-c3ccccc3)cc2)CCC1                  111
9  C=CC(=O)N1CCC[C@@H](n2nc(-c3ccc(Oc4ccccc4)cc3)c3c(N)ncnc32)C1                  106
